Provide the reported pIC50 of each item.
# target.entity: KRAS G13D binding to BRAF RBD (Homo sapiens (Human), UniProt P01116+P62937, G13D)
# Sequence (P01116 other isoform, or with tags, fused parts or gaps G13D, one chain of several): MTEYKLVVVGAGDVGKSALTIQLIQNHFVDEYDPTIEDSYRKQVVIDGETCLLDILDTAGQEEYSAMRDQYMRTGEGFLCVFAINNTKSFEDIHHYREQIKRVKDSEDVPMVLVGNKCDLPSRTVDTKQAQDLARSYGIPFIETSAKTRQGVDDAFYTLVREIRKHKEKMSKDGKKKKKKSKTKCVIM
# protocol.details: Ras-Raf disruption/FRET/MOA assay, KRAS G13D
pIC50: −log10 of the molar value.

Okay, here is my list. What is pIC50 for each of these?
1. CCn1c(-c2cccnc2COC)c2c3cc(ccc31)-c1cc(O)cc(c1)C[C@H](NC(=O)[C@H](C(C)C)N(C)C(=O)[C@H]1CCN(C(=O)/C=C\CN(C)C)C1)C(=O)N1CCC[C@H](N1)C(=O)OCC(C)(C)C2
2. CCn1c(-c2cccnc2[C@H](C)OC)c2c3cc(ccc31)-c1cccc(c1)C[C@H](NC(=O)[C@H](C(C)C)N(C)C(=O)[C@H]1CCN(C(=O)C#CC3CCO3)C1)C(=O)N1CC(Br)C[C@H](N1)C(=O)OCC(C)(C)C2 (some centres unmarked)

["5.00 to 6.00", "< 5.00"]

Okay, here is my list. What is pIC50 for each of these?
1. C=CC(=O)N1CC[C@H](C(=O)N(C)[C@H](C(=O)N[C@H]2Cc3csc(n3)-c3ccc4c(c3)c(c(-c3cc(N5CCN(C)CC5)cnc3[C@H](C)OC)n4CC(C)(F)F)CC(C)(C)COC(=O)[C@@H]3CCCN(N3)C2=O)C(C)C)C1
2. C=CC(=O)N1CC[C@H](C(=O)N(C)[C@H](C(=O)N[C@H]2CC3CN(CCO3)c3ccc4c(c3)c(c(-c3cccnc3[C@H](C)OC)n4CC)CC(C)(C)COC(=O)[C@@H]3CCCN(N3)C2=O)C(C)C)C1
3. C=CC(=O)N(C)CCN1CCN(C(=O)N(C)[C@H](C(=O)N[C@H]2C[n+]3cccc(c3)-c3ccc4c(c3)c(c(-c3cccnc3[C@H](C)OC)n4CC)CC(C)(C)COC(=O)[C@@H]3CCCN(N3)C2=O)C(C)C)CC1

1: 6.00 to 7.00; 2: < 5.00; 3: 5.00 to 6.00

Okay, here is my list. What is pIC50 for each of these?
1. CCn1c(-c2cccnc2[C@H](C)OC)c2c3cc(ccc31)-c1cccc(c1)C[C@H](NC(=O)[C@H](C(C)C)N1CC[C@]3(CCN(C(=O)C#CC(C)(C)N(C)C)C3)C1=O)C(=O)N1CCC[C@H](N1)C(=O)OCC(C)(C)C2
2. C=CC(=O)N1CC[C@H](C(=O)N(C)[C@H](C(=O)NC2C[C@@H]3CN(CCO3)c3ccc4c(c3)c(c(-c3cccnc3COC)n4CC)CC(C)(C)COC(=O)[C@@H]3CCCN(N3)C2=O)C(C)C)C1 (some centres unmarked)
3. C=CC(=O)N(C)CCN1CCN(C(=O)N(C)[C@H](C(=O)N[C@H]2CN3CCC=C(C3)c3ccc4c(c3)c(c(-c3cccnc3[C@H](C)OC)n4CC)CC(C)(C)COC(=O)[C@@H]3CCCN(N3)C2=O)C(C)C)C[C@@H]1C

1: < 5.00; 2: < 5.00; 3: 5.00 to 6.00

---

Provide the reported pIC50 of each item.
# target.entity: NRAS WT binding to BRAF RBD (Homo sapiens (Human), UniProt P01111+P62937)
# Sequence (P01111 whole entry, one chain of several): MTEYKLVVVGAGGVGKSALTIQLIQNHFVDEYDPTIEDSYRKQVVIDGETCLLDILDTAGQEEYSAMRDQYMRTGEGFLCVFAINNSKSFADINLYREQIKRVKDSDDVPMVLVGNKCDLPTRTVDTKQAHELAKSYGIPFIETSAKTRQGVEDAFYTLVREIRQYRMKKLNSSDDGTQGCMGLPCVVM
# protocol.details: Ras-Raf disruption/FRET/MOA assay, NRAS WT
pIC50: −log10 of the molar value.

compound	target.entity	recorded.endpoint	result
CC[C@@H](COC1CN(C(=O)C#CC(C)(C)N(C)C)C1)C(=O)N[C@H]1Cc2nc(cs2)-c2ccc3c(c2)c(c(-c2cccnc2[C@H](C)OC)n3CC)CC(C)(C)COC(=O)[C@@H]2CCCN(N2)C1=O (atropisomer, axis not shown)	NRAS WT binding to BRAF RBD (Homo sapiens (Human), UniProt P01111+P62937)	pIC50	5.00 to 6.00

Okay, here is my list. What is pIC50 for each of these?
1. CCn1c(-c2cccnc2[C@H](C)OC)c2c3cc(ccc31)-c1csc(n1)C[C@H](NC(=O)C1(COC3CN(C(=O)C#CC(C)(C)N4CCC4)C3)CC1)C(=O)N1CCC[C@H](N1)C(=O)OCC(C)(C)C2
2. C=CC(=O)N1CC[C@H](C(=O)N(C)[C@H](C(=O)N[C@H]2CC3CN(CCO3)c3ccc4c(c3)c(c(-c3cccnc3[C@H](C)OC)n4CC)CC(C)(C)COC(=O)[C@@H]3CCCN(N3)C2=O)C(C)C)C1

["5.00 to 6.00", "5.00 to 6.00"]

compound CCn1c(-c2cccnc2[C@H](C)OC)c2c3cc(ccc31)-c1cnc(o1)C[C@H](NC(=O)[C@@H](COC1CN(C(=O)C#CC(C)(C)N(C)C)C1)C(C)C)C(=O)N1CCC[C@H](N1)C(=O)OCCC2 (atropisomer, axis not shown) , pIC50 observed: < 5.00

---

# target.entity: KRAS G12S (Homo sapiens (Human), UniProt P01116+P62937, G12S)
# Sequence (P01116 other isoform, or with tags, fused parts or gaps G12S): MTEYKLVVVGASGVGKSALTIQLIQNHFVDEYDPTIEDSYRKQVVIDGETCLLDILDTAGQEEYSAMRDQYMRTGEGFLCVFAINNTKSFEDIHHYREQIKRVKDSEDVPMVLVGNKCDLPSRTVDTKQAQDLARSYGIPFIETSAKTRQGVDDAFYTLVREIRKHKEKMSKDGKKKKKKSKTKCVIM
# Sequence (P62937 whole entry): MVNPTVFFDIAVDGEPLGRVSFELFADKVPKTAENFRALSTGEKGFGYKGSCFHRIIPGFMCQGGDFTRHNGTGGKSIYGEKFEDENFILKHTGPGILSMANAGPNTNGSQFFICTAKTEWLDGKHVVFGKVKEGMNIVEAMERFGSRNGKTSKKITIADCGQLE
# protocol.details: Ras-Raf disruption/FRET/MOA assay (BRAF RBD, Cyclophilin A)
# Format: biochemical
# condition.label: read-out: KRAS G12S FRET IC50
recorded.endpoint: IC50

compound	IC50
CCn1c(-c2cccnc2[C@H](C)OC)c2c3cc(ccc31)-c1csc(n1)C[C@H](NC(=O)[C@H](C(C)C)N(C)C(=O)N1CC(C(=O)N3CCOCC3)C1)C(=O)N1CCC[C@H](N1)C(=O)OCC(C)(C)C2	100 to 1000 nM

Okay, here is my list. What is IC50 for each of these?
1. CCn1c(-c2cccnc2[C@H](C)OC)c2c3cc(ccc31)-c1cc(O)cc(c1)C[C@H](NC(=O)[C@H](C(C)C)N(C)C(=O)C1CC(C)C1)C(=O)N1CCC[C@H](N1)C(=O)OCC(C)(C)C2 (stereo partly drawn)
2. CCn1c(-c2cccnc2[C@H](C)OC)c2c3cc(ccc31)-c1cc(O)cc(c1)C[C@H](NC(=O)[C@H](C(C)C)N(C)C(=O)N1CC(OC)C1)C(=O)N1CCC[C@H](N1)C(=O)OCC(C)(C)C2
3. CCn1c(-c2cccnc2[C@H](C)OC)c2c3cc(ccc31)-c1cc(O)cc(c1)C[C@H](NC(=O)[C@H](C(C)C)N(C)C(=O)C13CC(CO1)C3)C(=O)N1CCC[C@H](N1)C(=O)OCC(C)(C)C2
4. CCn1c(-c2cccnc2[C@H](C)OC)c2c3cc(ccc31)-c1cc(O)cc(c1)C[C@H](NC(=O)[C@H](C(C)C)N(C)C(=O)C1CCC3(CCOC3)O1)C(=O)N1CCC[C@H](N1)C(=O)OCC(C)(C)C2 (stereo partly drawn)
5. CCn1c(-c2cccnc2[C@H](C)OC)c2c3cc(ccc31)-c1cc(cc(C(F)F)c1)C[C@H](NC(=O)[C@H](C(C)C)N(C)C(=O)[C@@H]1OCC[C@@H]1c1ccccc1)C(=O)N1CCC[C@H](N1)C(=O)OCC(C)(C)C2
6. CCn1c(-c2cccnc2[C@H](C)OC)c2c3cc(ccc31)-c1csc(n1)C[C@H](NC(=O)N1CCOCC1)C(=O)N1CCC[C@H](N1)C(=O)OCC(C)(C)C2
7. CCn1c(-c2cc(N3CCN(C)CC3)cnc2[C@H](C)OC)c2c3cc(ccc31)-c1csc(n1)C[C@H](NC(=O)[C@H](C(C)C)N(C)C(=O)[C@@H]1CCCS1(=O)=O)C(=O)N1CCC[C@H](N1)C(=O)OCC(C)(C)C2

1. 100 to 1000 nM
2. 100 to 1000 nM
3. 10 to 100 nM
4. 10 to 100 nM
5. 1000 to 10000 nM
6. 100 to 1000 nM
7. 1000 to 10000 nM

compound CCn1c(-c2cnccc2COC)c2c3cc(ccc31)-c1cc(O)cc(c1)C[C@H](NC(=O)C(C)C1CCOCC1)C(=O)N1CCC[C@H](N1)C(=O)OCC(C)(C)C2 (stereo partly drawn) , IC50 observed: 1000 to 10000 nM

---

# target.entity: KRAS G12D (Homo sapiens (Human), UniProt P01116+P62937, G12D)
# Sequence (P01116 other isoform, or with tags, fused parts or gaps G12D, one chain of several): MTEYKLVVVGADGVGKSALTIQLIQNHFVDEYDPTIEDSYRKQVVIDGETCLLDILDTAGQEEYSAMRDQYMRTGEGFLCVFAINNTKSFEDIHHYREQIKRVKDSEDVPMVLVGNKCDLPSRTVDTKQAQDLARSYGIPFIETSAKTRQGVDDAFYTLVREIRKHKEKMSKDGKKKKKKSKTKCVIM
# protocol.details: Ras-Raf disruption/FRET/MOA assay (BRAF RBD, Cyclophilin A)
# Type: biochemical
# condition.label: read-out: KRAS G12D FRET IC50
recorded.endpoint: IC50

Solved cases (2 shown):
compound	IC50
CCn1c(-c2cccnc2[C@H](C)OC)c2c3cc(ccc31)-c1csc(n1)C[C@H](NC(=O)[C@H](C(C)C)N(C)C(=O)N1CC[C@@H]1C)C(=O)N1CCC[C@H](N1)C(=O)OCC(C)(C)C2 [Compound A304]	0.1 to 1 µM
CCn1c(-c2cnccc2COC)c2c3cc(ccc31)-c1cc(O)cc(c1)C[C@H](NC(=O)[C@H](C(C)C)N(C)C(=O)CNC(=N)N)C(=O)N1CCC[C@H](N1)C(=O)OCC(C)(C)C2 [Compound A68]	0.1 to 1 µM

Now let's try a different one.
compound CCn1c(-c2cccnc2[C@H](C)OC)c2c3cc(ccc31)-c1cc(O)cc(c1)C[C@H](NS(=O)(=O)CC1CCC3(CNC3)C1)C(=O)N1CCC[C@H](N1)C(=O)OCC(C)(C)C2 (stereo partly drawn) [Compound A188] , IC50 observed: > 10 µM
